Test: Antiproliferative activity against human HaCaT cells assessed as growth inhibition after 48 hrs by sulforhodamine B assay
Format: cell-based
Doc: threshold 10 µg/mL (exclusive). Items with GI50 at 48 h beneath it return class 1; others return class 0.

1) Fc1ccc(Cn2cc(CCCOc3cccc4cccnc34)nn2)cc1F | class 0
2) COc1cccc2c1C(=O)c1c(O)c3c(c(O)c1C2=O)C[C@@](O)(C(=O)CO)C[C@@H]3O[C@H]1C[C@H](N)[C@H](O)[C@H](C)O1 | class 1
3) FC(F)(F)Oc1ccc(Cn2cc(CCCOc3cccc4cccnc34)nn2)cc1 | class 1
4) Ic1ccc(Cn2cc(CCCOc3cccc4cccnc34)nn2)cc1 | class 0
5) O=C(Cn1cc(CCCOc2cccc3cccnc23)nn1)OCc1ccc(F)c(F)c1 | class 0
6) Brc1ccc(Cn2cc(CCCOc3cccc4cccnc34)nn2)cc1 | class 0
7) Clc1ccc(Br)cc1Cn1cc(CCCOc2cccc3cccnc23)nn1 | class 1
8) CC1(C)O[C@H]2[C@@H](O1)[C@@H](Cn1cc(CCCOc3cccc4cccnc34)nn1)O[C@@H]1OC(C)(C)O[C@@H]12 | class 0
9) Clc1cc(Cl)c(Cn2cc(CCCOc3cccc4cccnc34)nn2)c(Cl)c1 | class 1
10) c1ccc(Cn2cc(CCCOc3cccc4cccnc34)nn2)cc1 | class 0
11) Fc1ccc(Cn2cc(CCCOc3cccc4cccnc34)nn2)cc1 | class 0
12) c1cncc(CCCn2cc(CCCOc3cccc4cccnc34)nn2)c1 | class 0
13) Clc1ccc(Cn2cc(CCCOc3cccc4cccnc34)nn2)cc1 | class 1
